test: total protein half-life in vivo (active degradation + dilution); higher = more stable protein; details: wild type E. coli NCM3722; growth: P-lim chemostat; doubling time 6 h
We begin with a simple list: items and their reported total protein half-life in vivo.
Numbers only here, please. The scale is h.

{"query sequence": "MIVTIVGWLVLFVFLPNLMIIGTSFLTRDDASFVKMVFTLDNYTRLLDPLYFEVLLHSLNMALIATLACLVLGYPFAWFLAKLPHKVRPLLLFLLIVPFWTNSLIRIYGLKIFLSTKGYLNEFLLWLGVIDTPIRIMFTPSAVIIGLVYILLPFMVMPLYSSIEKLDKPLLEAARDLGASKLQTFIRIIIPLTMPGIIAGCLLVMLPAMGLFYVSDLMGGAKNLLIGNVIKVQFLNIRDWPFGAATSITLTIVMGLMLLVYWRASRLLNKKVELE [P0AFK4]", "measure": "total protein half-life in vivo", "val": 2.09}

Which total protein half-life in vivo reading was recorded for the sequence MFTGSIVAIVTPMDEKGNVCRASLKKLIDYHVASGTSAIVSVGTTGESATLNHDEHADVVMMTLDLADGRIPVIAGTGANATAEAISLTQRFNDSGIVGCLTVTPYYNRPSQEGLYQHFKAIAEHTDLPQILYNVPSRTGCDLLPETVGRLAKVKNIIGIKEATGNLTRVNQIKELVSDDFVLLSGDDASALDFMQLGGHGVISVTANVAARDMAQMCKLAAEGHFAEARVINQRLMPLHNKLFVEPNPIPVKWACKELGLVATDTLRLPMTPITDSGRETVRAALKHAGLL [P0A6L2] ?
5.72
